Assay: AUC (0 to infinity) in healthy human plasma at 1200 mg, po administered as single dose measured after 120 hrs
Assay type: ADME, organism-based
Design: dose 1200 mg, route oral, time infinity
Metric: AUC(0-inf) (ng·h/mL)
Numbers only, in ng·h/mL.

Task item: // AUC(0-inf) lookup, key: `CC[C@H]1OC(=O)[C@H](C)C(=O)[C@H](C)[C@@H](O[C@@H]2O[C@H](C)C[C@H](N(C)C)[C@H]2O)[C@@]2(C)C[C@@H](C)/C(=N\C(C)=O)[C@H](C)[C@@H](OC/C(=N\OCc3ccc(-n4cccn4)nc3)CO2)[C@]1(C)O`
Reply: 38300
